tested on: Phytophthora infestans; assay: whole plant or invertebrate; format: in vivo; details: tomato late blight; spray the day before inoculation; compounds without asterisk (not 40 or 10 ppm)
Test readout: Test C disease rating (100 = 100% disease control, 0 = no disease control) (%)
Answer with a number only, understood to be in %.

Past entries and their recorded results:
Cc1cccc(CC(=O)N2CCC(c3nc(C(=O)N(C)Cc4ccccn4)cs3)CC2)c1
14
Cc1cc(C(F)(F)F)nn1CC(=O)N1CCC(n2cc(C(=O)N(C)[C@@H]3CCCc4ccccc43)nn2)CC1
99
COc1ccc([C@@H](C)N(C)C(=O)c2csc(C3CCN(C(=O)Cc4cc(C)ccc4C)CC3)n2)cc1
98
CN(Cc1ccccc1)C(=O)c1csc(C2CCN(C(=O)Cc3ccccc3Cl)CC2)n1
15
Cc1cccc(CC(=O)N2CCC(c3nc(C(=O)N(C)C(C)c4ncc(Cl)cc4Cl)cs3)CC2)c1 (stereo not drawn)
69

q: Identify measured Test C disease rating (100 = 100% disease control, 0 = no disease control) corresponding to Cc1cc(C(F)(F)F)nn1CC(=O)N1CCC(c2nc(C(=O)N(C)[C@H](C)c3ncc(Cl)cc3Cl)cs2)CC1
a: 100

q: Identify measured Test C disease rating (100 = 100% disease control, 0 = no disease control) corresponding to CCCc1nc(C(F)(F)F)cn1CC(=O)N1CCC(c2nc(C(=O)N(C)[C@H](C)c3ccccc3)cs2)CC1
a: 100

q: Identify measured Test C disease rating (100 = 100% disease control, 0 = no disease control) corresponding to Cc1ccc(F)cc1CC(=O)N1CCC(c2nc(C(=O)N(C)[C@H](C)c3ccccc3)cs2)CC1
a: 100

q: Identify measured Test C disease rating (100 = 100% disease control, 0 = no disease control) corresponding to Cc1ccc(C)c(CC(=O)N2CCC(c3nc(C(=O)N(C)C(C#N)c4ccccc4)cs3)CC2)c1 (stereo not drawn)
a: 99

q: Identify measured Test C disease rating (100 = 100% disease control, 0 = no disease control) corresponding to CCC(C)c1cc(C)n(CC(=O)N2CCC(c3nc(C(=O)N(C)[C@H](C)c4ccccc4)cs3)CC2)n1 (stereo partly drawn)
a: 0

q: Identify measured Test C disease rating (100 = 100% disease control, 0 = no disease control) corresponding to Cc1cccnc1CC(=O)N1CCC(c2nc(C(=O)N(C)[C@@H]3CCCc4ccccc43)cs2)CC1
a: 99

q: Identify measured Test C disease rating (100 = 100% disease control, 0 = no disease control) corresponding to CN(C(=O)c1csc(C2CCN(C(=O)Cc3cccc(Cl)n3)CC2)n1)[C@@H]1CCCc2ccccc21
a: 99

q: Identify measured Test C disease rating (100 = 100% disease control, 0 = no disease control) corresponding to C=CCC(c1ccccc1)N(C)C(=O)c1csc(C2CCN(C(=O)Cc3cc(C)ccc3C)CC2)n1 (stereo not drawn)
a: 87

q: Identify measured Test C disease rating (100 = 100% disease control, 0 = no disease control) corresponding to C[C@H](c1ccccc1)N(C)C(=O)c1csc(C2CCN(C(=O)Cc3ccc(Cl)cc3Cl)CC2)n1
a: 0

q: Identify measured Test C disease rating (100 = 100% disease control, 0 = no disease control) corresponding to Cc1cc(C)n(CC(=O)N2CCC(c3nc(C(=O)N(C)[C@H](C)c4ccccc4)cs3)CC2)c1
a: 70
